Hey, just so you know, these numbers are from patent US20120189639A1.

study_target: T1, human GITR on naïve CD4+ T cells (human, UniProt Q9Y5U5 26-241)
T1 sequence: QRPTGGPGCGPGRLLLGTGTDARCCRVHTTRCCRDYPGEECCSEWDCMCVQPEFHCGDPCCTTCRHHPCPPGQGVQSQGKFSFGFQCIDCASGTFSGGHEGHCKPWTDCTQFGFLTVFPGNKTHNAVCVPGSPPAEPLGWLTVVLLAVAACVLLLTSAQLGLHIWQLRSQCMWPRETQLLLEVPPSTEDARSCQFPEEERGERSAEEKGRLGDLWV
assay_notes: cell-based or functional assay
property: proliferation of naïve CD4+ T cells, mean, at 1000.0 ng/mL Ab
# print the numeric value only

17F10 (antibody, V domains shown, Parental rodent anti-human GITR monoclonal antibody from a hybridoma; kappa VL; also called 17F10.B1) VH: EVKLVESGGGFVKPGGSLKLSCAASGFTVRNYAMSWVRQTPEKRLEWVASISTGDRSYLPDSMKGRFTISRDNARNILYLQMSSLRSEDTAIYYCQRYFDFDSFAFWGQGTLVTVSA VL: DIQMTQTPSSLSASLGDRVTISCRASQDINNFLNWYQQKPDGSLKLLIYYTSKLHSGVPSRFSGSGSGTDFSLTISNLDQEDVATYFCQQGHTLPPTFGGGTKLEVKR :: 89400
49A1 (antibody, V domains shown, Parental rodent anti-human GITR monoclonal antibody from a hybridoma; kappa VL; also called 49A1.B1) VH: EVQLQESGPSLVKPSQTLSLTCSVTGDSITSGYWNWIRKFPGNKFEYMGFISYSGNTYYNPSLRSRISITRDTSKNQYFLHLNSVTTEDTATYYCSRRHLISGYGWFAYWGQGTLVTVSA VL: VIVMTQSHKFMSTSIGDRVNITCKASQDVISAVAWYQQKPGQSPKLLIYWASTRHTGVPDRFTGSGSGTDFTLTINSVQAEDRALYYCQQHSYTPPWTFGGGTNLEIKR :: 78000
31H6 (antibody, V domains shown, Parental rodent anti-human GITR monoclonal antibody from a hybridoma; kappa VL; also called 31H6.B7) VH: QVTLKESGPGILQPSQTLSLTCTFSGFSLSTYGVGVGWIRQPSGKGLEWLANIWWDDDKYYNPSLKNRLTISKDTSNNQAFLKITNVDTAETATYYCAQIKEPRDWFFEFWGPGTMVSVSS VL: DIQMTQTPSSMPASLGERVTIFCRASQGVNNYLTWYQQKPDGTIKPLIFYTSNLQSGVPSRFSGSGSGTDYSLSISSLEPEDFAMYYCQQYHGFPNTFGAGTKLELKR :: 87500
9E5 (antibody, V domains shown, Parental rodent anti-human GITR monoclonal antibody from a hybridoma; kappa VL; also called 9E5.C1) VH: QVTLKESGPGILQPSQTLSLTCTFSGFSLSTYGVGVGWIRQPSGKGLEWLANIWWDDDNYYNPSLIHRLTVSKDTSNNQAFLKITNVDTAETATYYCAQIKEPRDWFFEFWGPGTMVSVSS VL: DIQMTQTPSSMPASLGERVTIFCRASQGVNNFLTWYQQKPDGTIKPLIFYTSNLQSGVPSRFSGSGSGTDYSLSISSLEPEDFAMYYCQQYHGFPNTFGAGTKLELKR :: 83600

Now consider a different binder.
Query string: What does the data say about its proliferation of naïve CD4+ T cells, mean, at 1000.0 ng/mL Ab? Entry: 35D8 (antibody, V domains shown, Parental rodent anti-human GITR monoclonal antibody from a hybridoma; kappa VL; also called 35D8.B10) VH: EVQLQESGPSLVKPSQTLSLTCSVTGDSITSGYWNWIRKFPGNKLEYMGYISYSGSTYYNPSLRGRISITRDTSKSQYYLQLSSVTTEDTATYYCSRRHLGSGYGWFAYWGQGTLVTVSA VL: DIVMTQSHKFMSTSVGDRVSITCKASQDVNTAVAWYQQKPGQSPKLLIYWASTRHTGVPDRFTGSGSGTDYALTINSVQAEDLALYYCQQHSYTPPWTFGGGTKLEIRR
Result string: 97300
